Quick list: melting point per entry.
Endpoint: melting point

INSERT INTO measurements (compound, assay_result) VALUES
  ('CCC(COC)n1nnc2c(Nc3c(Cl)cc(OC)cc3OC)nc(C)nc21 (racemic)', '149 to 150 °C'),
  ('CCCCC(CCCC)n1nnc2c(Nc3ccc(C(C)C)cc3Br)nc(C)nc21', '132 to 133 °C'),
  ('CCC(COC)n1nnc2c(Nc3ccc(Br)cc3C)nc(C)nc21 (racemic)', '144.5 to 146 °C'),
  ('CCCC(CCC)n1nnc2c(Nc3ccc(C(C)C)cc3Br)nc(C)nc21', '69 to 70 °C'),
  ('CCC(COC)n1nnc2c(Nc3c(Br)cc(OC)cc3OC)nc(C)nc21 (racemic)', '154 to 155 °C'),
  ('CCCC(CC)n1nnc2c(Nc3c(C)cc(C)cc3C)nc(C)nc21 (racemic)', '170.5 to 172 °C'),
  ('CCC(COC)n1nnc2c(Nc3ccc(C(C)C)cc3Br)nc(C)nc21 (racemic)', '115 to 116 °C'),
  ('COCCn1nnc2c(Nc3c(C)cc(C)cc3C)nc(C)nc21', '171.5 to 173.5 °C'),
  ('CCCC(CC)n1nnc2c(Nc3ccc(C(C)C)cc3Br)nc(C)nc21 (racemic)', '154 to 155 °C'),
  ('CCCC(CCC)n1nnc2c(Nc3c(C)cc(C)cc3C)nc(C)nc21', '143 to 144.5 °C'),
  ('CCCC(CCC)n1nnc2c(Nc3ccc(Br)cc3C)nc(C)nc21', '126.5 to 128 °C'),
  ('CCC(COC)n1nnc2c(Nc3ccc(C(C)=O)cc3Br)nc(C)nc21 (racemic)', '133 to 134 °C'),
  ('CCCC(CCC)n1nnc2c(Nc3c(C)cc(C)cc3Br)nc(C)nc21', '141 to 142 °C'),
  ('CCCCC(CC)n1nnc2c(Nc3c(Br)cc(OC)cc3OC)nc(C)cc21 (racemic)', '127 to 128 °C'),
  ('COCCn1nnc2c(Nc3ccc(C(C)C)cc3Br)nc(C)nc21', '94 to 95 °C'),
  ('COC[C@H](Cc1ccccc1)n1nnc2c(Nc3ccc(C(C)C)cc3Br)nc(C)nc21', '67 to 69 °C');
